# system-tested: Metabotropic glutamate receptor 5 (Rattus norvegicus)
# Sequence (P31424 whole entry): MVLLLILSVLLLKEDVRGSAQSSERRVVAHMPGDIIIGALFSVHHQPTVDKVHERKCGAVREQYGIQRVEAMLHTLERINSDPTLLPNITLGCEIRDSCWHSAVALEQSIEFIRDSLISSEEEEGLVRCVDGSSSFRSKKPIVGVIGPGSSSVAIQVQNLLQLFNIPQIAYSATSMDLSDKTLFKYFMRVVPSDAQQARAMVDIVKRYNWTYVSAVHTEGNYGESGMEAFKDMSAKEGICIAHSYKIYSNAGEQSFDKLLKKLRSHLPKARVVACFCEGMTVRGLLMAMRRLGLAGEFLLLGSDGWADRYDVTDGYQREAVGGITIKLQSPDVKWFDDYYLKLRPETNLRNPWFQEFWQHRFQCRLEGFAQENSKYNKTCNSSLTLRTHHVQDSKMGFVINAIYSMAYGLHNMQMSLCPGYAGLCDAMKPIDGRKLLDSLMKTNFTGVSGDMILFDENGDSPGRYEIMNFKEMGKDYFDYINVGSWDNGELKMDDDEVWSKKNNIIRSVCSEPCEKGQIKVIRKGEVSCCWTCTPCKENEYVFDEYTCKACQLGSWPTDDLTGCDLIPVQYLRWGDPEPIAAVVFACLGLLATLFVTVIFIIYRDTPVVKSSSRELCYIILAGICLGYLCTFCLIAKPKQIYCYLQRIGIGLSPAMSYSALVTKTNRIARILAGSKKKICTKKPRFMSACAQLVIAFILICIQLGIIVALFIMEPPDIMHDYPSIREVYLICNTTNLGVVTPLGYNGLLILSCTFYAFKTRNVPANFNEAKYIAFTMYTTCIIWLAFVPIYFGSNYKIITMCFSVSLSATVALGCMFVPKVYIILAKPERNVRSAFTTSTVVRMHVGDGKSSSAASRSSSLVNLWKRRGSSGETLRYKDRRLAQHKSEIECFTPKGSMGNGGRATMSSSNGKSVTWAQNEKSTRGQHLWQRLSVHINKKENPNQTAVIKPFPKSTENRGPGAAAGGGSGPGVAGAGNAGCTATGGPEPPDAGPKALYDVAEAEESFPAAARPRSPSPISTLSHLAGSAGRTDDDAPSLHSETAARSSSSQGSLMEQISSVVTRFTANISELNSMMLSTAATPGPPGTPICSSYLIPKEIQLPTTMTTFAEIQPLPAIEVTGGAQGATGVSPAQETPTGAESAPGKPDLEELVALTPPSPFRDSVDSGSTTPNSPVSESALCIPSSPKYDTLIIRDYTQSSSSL
# assay-comment: Positive allosteric modulation of rat mGluR5 expressed in HEK293 cells
attribute-measured: EC50 (nM)

Completed entries (count: 6):
>  <structure-string>
CSc1nnc2c(n1)O[C@@H](c1cccn1C)N(C(C)=O)c1ccccc1-2

>  <attribute-measured>
EC50

>  <unit-descriptor>
nM

>  <numeric-readout>
9550

$$$$
>  <structure-string>
CCSc1nnc2c(n1)O[C@@H](c1cccc(C)c1OC(C)=O)N(C(C)=O)c1ccccc1-2

>  <attribute-measured>
EC50

>  <unit-descriptor>
nM

>  <numeric-readout>
2820

$$$$
>  <structure-string>
CCSc1nnc2c(n1)O[C@H](c1cc3c(cc1Br)OCO3)N(C(C)=O)c1ccccc1-2

>  <attribute-measured>
EC50

>  <unit-descriptor>
nM

>  <numeric-readout>
4270

$$$$
>  <structure-string>
CCSc1nnc2c(n1)O[C@@H](c1ccc(Cl)cc1)N(C(C)=O)c1ccccc1-2

>  <attribute-measured>
EC50

>  <unit-descriptor>
nM

>  <numeric-readout>
676

$$$$
>  <structure-string>
CCSc1nnc2c(n1)O[C@@H](c1ccccc1F)N(C(C)=O)c1ccccc1-2

>  <attribute-measured>
EC50

>  <unit-descriptor>
nM

>  <numeric-readout>
398

$$$$
>  <structure-string>
CSc1nnc2c(n1)O[C@@H](c1ccc(C)cc1)N(C(C)=O)c1ccccc1-2

>  <attribute-measured>
EC50

>  <unit-descriptor>
nM

>  <numeric-readout>
2750

$$$$

[P] COc1ccc([C@@H]2Oc3nc(SC)nnc3-c3ccccc3N2C(C)=O)cc1
[Q] CCSc1nnc2c(n1)O[C@@H](c1cccc(OC)c1)N(C(=O)CC)c1ccccc1-2
[R] CCCCSc1nnc2c(n1)O[C@@H](c1cccc(C)n1)N(C(C)=O)c1ccccc1-2
q: Please produce an ascending ranking of these compounds based on EC50. Answer by naming the labels in the order asked.
a: Q, R, P

* * *

# system-tested: Metabotropic glutamate receptor 5 (Rattus norvegicus)
# assay-comment: Positive allosteric modulation of rat mGluR5 expressed in HEK293 cells
attribute-measured: EC50 (nM)

Completed entries (count: 4):
>  <structure-string>
CCC(=O)Oc1ccc(Cl)cc1[C@@H]1Oc2nc(SC)nnc2-c2ccccc2N1C(=O)CC

>  <numeric-readout>
3240

$$$$
>  <structure-string>
CSc1nnc2c(n1)O[C@@H](c1ccsc1)N(C(C)=O)c1ccccc1-2

>  <numeric-readout>
1020

$$$$
>  <structure-string>
CCC(=O)N1c2ccccc2-c2nnc(SC)nc2O[C@H]1c1cc(Cl)c(OC)c(OC)c1

>  <numeric-readout>
1200

$$$$
>  <structure-string>
CCC(=O)N1c2ccccc2-c2nnc(SC)nc2O[C@H]1c1ccco1

>  <numeric-readout>
4270

$$$$

[I] CCCCSc1nnc2c(n1)O[C@@H](CC)N(C(C)=O)c1ccccc1-2
[II] CCCC(=O)N1c2ccccc2-c2nnc(SC)nc2O[C@H]1c1cccc(C)n1
[III] CCCC(=O)N1c2ccccc2-c2nnc(SCC)nc2O[C@H]1c1cccs1
[IV] C=CCSc1nnc2c(n1)O[C@@H](c1ccccc1)N(C(C)=O)c1ccccc1-2
q: Order field: EC50 | Direction: descending (largest first) Answer by naming the labels in the order asked.
a: I, II, III, IV
